experiment: Solubility of the compound in fasted state simulated intestinal fluid measured after 4 hrs; type: physicochemical
Quantity measured: solubility at 4 h (µg/mL)
# unit: µg/mL | format: bare number

Lab note: "Cc1nnc(N2CCC(C(=O)N3N=CC[C@H]3c3cc(F)cc(F)c3)CC2)o1" gave solubility at 4 h of 250

###

experiment: Tmax in mouse at 30 mg/kg, po; type: ADME, organism-based; settings: in vivo
Quantity measured: Tmax (min)
# unit: min | format: bare number

Lab note: "Cc1nnc(N2CCC(C(=O)N3N=CC[C@H]3c3cc(F)cc(F)c3)CC2)o1" gave Tmax of 30

###

assay: Cmax in minipig at 2 mg/kg, po; type: ADME, organism-based, Sus scrofa; parameters: dose 2 mg/kg, route oral; conditions: pig, in vivo
Quantity measured: Cmax (ng/mL)
# unit: ng/mL | format: bare number

Lab note: "Cc1nnc(N2CCC(C(=O)N3N=CC[C@H]3c3cc(F)cc(F)c3)CC2)o1" gave Cmax of 576

###

assay: Unbound brain to blood concentration ratio in C57BL/6 mouse at 9.6 to 96 mg/kg/day added to chow pellets; format: ADME, organism-based; conditions: po, read-out: K(p,uu,brain)
Quantity measured: Kp uu
Give the value as a plain number.

Lab note: "N#Cc1cc(N2CCC(C(=O)N3N=CC[C@H]3c3cc(F)cc(F)c3)CC2)ncn1" gave Kp uu of 2.5

###

test: Volume of distribution at steady state in minipig at 1 mg/kg, iv; type: ADME, organism-based, Sus scrofa; conditions: pig, in vivo, read-out: Vdss
Quantity measured: Vd (L/kg)
# unit: L/kg | format: bare number

Lab note: "Cc1nnc(N2CCC(C(=O)N3N=CC[C@H]3c3cc(F)cc(F)c3)CC2)o1" gave Vd of 1.3

###

experiment: AUC (0 to infinity) in rat at 2 mg/kg, po; format: ADME, organism-based; design: dose 2 mg/kg, route oral, time infinity; conditions: in vivo
# AUC(0-inf) per entry
# unit: ng·h/mL | format: bare number

Example results:
{"columns": ["Compound", "AUC(0-inf) [ng·h/mL]"],
 "data": [
  ["CC(C)(C)C(=O)N1N=CCC1c1cocn1 (centres undefined)", 200],
  ["CC(=O)N1CCC(C(=O)N2N=CC[C@H]2c2ccccc2)CC1", 1600],
  ["O=C(C1CCOCC1)N1N=CCC1c1ccccc1 (centres undefined)", 44]
]}

Lab note: CC(C)(C)C(=O)N1N=CCC1c1cccnc1 (centres undefined) gave AUC(0-inf) of 260

###

experiment: Chromatographic hydrophobicity index, log D of the compound at pH 7.4 by reverse-phase HPLC analysis; format: physicochemical; conditions: buffer
Values of chromatographic logD strictly less than 6 map to Condition met, and values of at least 6 map to Condition not met.

// below: answered compounds
{"columns": ["Compound", "Answer label"],
 "data": [
  ["CC(C)(C)C(=O)N1N=CCC1c1cccc(Cl)c1 (stereo unspecified)", "Condition not met"],
  ["O=C(C1CCN(c2ccncn2)CC1)N1N=CC[C@H]1c1ccccc1", "Condition met"],
  ["CC(C)(C)C(=O)N1N=CCC1C1CCOCC1 (stereo unspecified)", "Condition met"]
]}

Lab note: chromatographic logD threshold 6. Does this compound come in strictly under it? CC(C)(C)C(=O)N1N=CCC1c1ccc(C(C)(C)C)cc1 (stereo unspecified)
Condition not met

Lab note: chromatographic logD threshold 6. Does this compound come in strictly under it? CC(C)(C)C(=O)N1N=CCC1c1cc[nH]n1 (stereo unspecified)
Condition met

Lab note: chromatographic logD threshold 6. Does this compound come in strictly under it? "N#Cc1nccc(N2CCC(C(=O)N3N=CC[C@H]3c3cc(F)cc(F)c3)CC2)n1"
Condition met

Lab note: chromatographic logD threshold 6. Does this compound come in strictly under it? CC(C)(C)C(=O)N1N=CCC1c1cocn1 (stereo unspecified)
Condition met

Lab note: chromatographic logD threshold 6. Does this compound come in strictly under it? O=C(C1CCCC1)N1N=CCC1c1ccccc1 (stereo unspecified)
Condition met
